Taken from patent EP4644383A1.

Target: FGFR1 (Homo sapiens, UniProt P11362)
Construct: cytoplasmic domain [398-822 (terminal) amino acids]; purchased Carna 08-133
Sequence (P11362 398-822): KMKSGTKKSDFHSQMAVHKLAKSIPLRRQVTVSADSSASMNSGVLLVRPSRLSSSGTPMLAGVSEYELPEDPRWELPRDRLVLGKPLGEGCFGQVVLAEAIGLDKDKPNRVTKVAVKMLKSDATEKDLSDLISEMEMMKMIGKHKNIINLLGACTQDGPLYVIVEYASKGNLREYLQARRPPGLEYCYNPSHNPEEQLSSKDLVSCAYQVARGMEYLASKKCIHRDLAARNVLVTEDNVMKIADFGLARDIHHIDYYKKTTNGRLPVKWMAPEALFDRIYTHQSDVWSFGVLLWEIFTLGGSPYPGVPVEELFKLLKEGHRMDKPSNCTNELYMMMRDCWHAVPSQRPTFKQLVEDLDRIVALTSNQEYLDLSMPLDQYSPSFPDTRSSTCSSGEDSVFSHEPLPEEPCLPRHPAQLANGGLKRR
Assay: FGFR1 kinase activity inhibition assay (LanthaScreen TR-FRET)
Assay type: biochemical
Protocol: PV3552) and 10 mM EDTA were added to quench the kinase reaction, and incubated at 22°C for 60 minutes. • ⑤ The reaction was measured using a PerkinElmer EnVision multimode plate reader through TR-FRET dual wavelength detection. • 1. The RFU values were copied from the Envision program. • 2. The ratio of RFU 520nm/RFU 495nm was calculated. • 3. The value of the ratio was converted to a percentage inhibition value. % Inhibition = (max-data)/(max-min) × 100 [formula] […]
pIC50: −log10 of the molar value.
I'd be grateful if you could share measured pIC50 for these entries.

Recorded pIC50, per entry:
CC(C)c1cc(C(C)Oc2ccc3[nH]nc(-c4cnn(C)c4)c3c2)c2nccnc2c1 (centres unmarked)    < 7.00
CC(C)N1CCC(n2cc(-c3n[nH]c4ccc(O[C@H](C)c5c(Cl)cncc5Cl)nc34)cn2)CC1    8.00 to 9.00
CC(Oc1ccc2[nH]nc(-c3cnn(C4CCN(S(C)(=O)=O)CC4)c3)c2c1)c1cccc2nccnc12 (centres unmarked)    7.00 to 8.00
C[C@@H](Oc1ccc2[nH]nc(-c3cnn(CCN4CCOCC4)c3)c2n1)c1c(Cl)cncc1Cl    8.00 to 9.00

Hi team, please reply with pIC50 for each item in this list.
1. C[C@@H](Oc1ccc2[nH]nc(-c3cnn(C4CCN(C(=O)N(C)C)CC4)c3)c2n1)c1c(Cl)cncc1Cl
2. Cc1cc(O[C@H](C)c2c(Cl)cncc2Cl)cc2c(-c3cnn(CC4CC4)c3)n[nH]c12
3. CCCn1cc(-c2n[nH]c3c(F)cc(O[C@H](C)c4c(Cl)cncc4Cl)cc23)cn1
4. CC(Oc1ccc2[nH]nc(-c3cnn(C)c3)c2c1)c1c(CO)ccc2ncccc12 (centres unmarked)

Result:
7.00 to 8.00
< 7.00
7.00 to 8.00
7.00 to 8.00
